assayDetails: logP determination by HPLC (EEC Directive 79/831 Annex V.A8), LC-MS
testSettings: * acidic range, pH 2.7, 0.1% aqueous formic acid/acetonitrile
Record form. Attribute: logP. Fill in for each entry.

{"columns": ["compound", "testValue"],
 "data": [
  ["O=C(Cn1nc(C(F)(F)F)cc1C(F)(F)F)N1CCC(c2nc(CS(=O)(=O)c3nnnn3-c3ccccc3)cs2)CC1", "3.59*"],
  ["Cc1ccc(C)c(CC(=O)N2CCC(c3nc(CSc4cccc5ccccc45)cs3)CC2)c1", "4.86*"],
  ["Cc1cc(C(F)(F)F)nn1CC(=O)N1CCC(c2nc(CSc3ccccc3-c3ccccc3)cs2)CC1", "4.49*"],
  ["O=C(Nc1cc(F)ccc1F)N1CCC(c2nc(CSc3nnnn3-c3ccccc3)cs2)CC1", "3.27*"],
  ["Cc1ccc(C)c(CC(=O)N2CCC(c3nc(CSC45CC6CC(CC(C6)C4)C5)cs3)CC2)c1", "5.99*"],
  ["Cc1ccc(C)c(NC(=O)N2CCC(c3nc(CSc4cccc5ccccc45)cs3)CC2)c1", "4.37*"]
]}

Hi there! I need logP for each item below, if you can.
1. COc1ccc(Cl)cc1NC(=O)N1CCC(c2nc(CSc3nnnn3-c3ccccc3)cs2)CC1
2. Cc1ccc(F)cc1NC(=O)N1CCC(c2nc(CSc3nnnn3-c3ccccc3)cs2)CC1
3. O=C(Cn1nc(C(F)F)cc1C(F)F)N1CCC(c2nc(CSc3ccccc3-c3ccccc3)cs2)CC1
4. O=C(Cn1nc(C(F)F)cc1C(F)F)N1CCC(c2nc(CSc3nccn3-c3ccccc3)cs2)CC1
5. Fc1ccc(F)c(NC(=S)N2CCC(c3nc(CSc4nnnn4-c4ccccc4)cs3)CC2)c1

Result ::
3.8*
3.2*
4.36*
2.13*
3.26*

Hi there! I need logP for each item below, if you can.
1. Cc1ccc(C)c(NC(=O)N2CCC(c3nc(CSC4CCCCC4)cs3)CC2)c1
2. COc1ccc(OC)c(NC(=O)N2CCC(c3nc(CSc4nnnn4-c4ccccc4)cs3)CC2)c1
3. Cc1cc(C(F)(F)F)nn1CC(=O)N1CCC(c2nc(CSC3=NOC(c4ccccc4)C3)cs2)CC1 (racemic)
4. S=C(Nc1cc(Cl)ccc1Cl)N1CCC(c2nc(CSc3nnnn3-c3ccccc3)cs2)CC1
5. Cc1cc(C(F)(F)F)nn1CC(=O)N1CCC(c2nc(CSc3nccn3-c3ccccc3)cs2)CC1
6. Cc1noc(C)c1NC(=S)N1CCC(c2nc(CSc3nnnn3-c3ccccc3)cs2)CC1
7. Cc1noc(C)c1NC(=O)N1CCC(c2nc(CSc3nnnn3-c3ccccc3)cs2)CC1
8. Fc1ccc(Br)c(NC(=S)N2CCC(c3nc(CSc4nnnn4-c4ccccc4)cs3)CC2)c1

Result ::
["4.38*", "3.26*", "3.52*", "3.77*", "2.22*", "2.7*", "2.22*", "3.46*"]

Memo: O=C(Nc1cc(C(F)(F)F)ccc1Cl)N1CCC(c2nc(CSc3nnnn3-c3ccccc3)cs2)CC1 , reported logP: 4.2*

* * *

assayDetails: logP determination by HPLC (EEC Directive 79/831 Annex V.A8), LC-MS
testSettings: pH 2.7, logP, * acidic range, pH 2.7, 0.1% aqueous formic acid/acetonitrile
readoutType: chromatographic logP
Answers are plain numbers.

Solved cases below.
{"columns": ["compound", "chromatographic logP"],
 "data": [
  ["Cc1cc(C(F)(F)F)nn1CC(=O)N1CCC(c2nc(CS(=O)(=O)c3nnnn3-c3ccccc3)cs2)CC1", 3.07],
  ["Cc1cc(C(F)(F)F)nn1CC(=O)N1CCC(c2nc(C[S+]([O-])C3CCCCC3)cs2)CC1 (centres unmarked)", 2.55],
  ["Cc1cc(C(F)(F)F)nn1CC(=S)N1CCC(c2nc(CSc3nnnn3-c3ccccc3)cs2)CC1", 2.82]
]}

Hi there! I need chromatographic logP for each item below, if you can.
1. Cc1cc(C(F)(F)F)nn1CC(=O)N1CCC(c2nc(CSc3cccc4ccccc34)cs2)CC1
2. Cc1cc(C(F)(F)F)nn1CC(=O)N1CCC(c2nc(CS(=O)(=O)C3CCCCC3)cs2)CC1

Result ::
1: 4.33; 2: 2.9
